Listing of entries alongside the reported CATDS.
Tested on: CDK10
Test: Kinobeads competition binding: CDK10
Design: species or system human
Details: target CDK10
# print the numeric value only

Recorded CATDS, per entry:
| compound | system | CATDS |
| --- | --- | --- |
| N#CC1(c2ccc(NC(=O)c3cccnc3NCc3ccncc3)cc2)CCCC1 [Apatinib] | CDK10 | 0 |
| CN(C)C/C=C/C(=O)Nc1cc2c(Nc3ccc(F)c(Cl)c3)ncnc2cc1O[C@H]1CCOC1 [Afatinib] | CDK10 | 0 |
| Nc1ncnc2[nH]c(-c3ccccc3)nc12 [AH5015_KCGS] | CDK10 | 0 |
| CCN1CCN(Cc2ccc(Nc3ncc(F)c(-c4cc(F)c5nc(C)n(C(C)C)c5c4)n3)nc2)CC1 [Abemaciclib] | CDK10 | 0 |

From here, focus on the item given below.
QUERY: What measured CATDS goes with CCc1cc2c(cc1N1CCC(N3CCOCC3)CC1)C(C)(C)c1[nH]c3cc(C#N)ccc3c1C2=O [Alectinib] ?
RESULT: 0
